biological target: Recombinant purified human BTK (Homo sapiens (Human), UniProt Q06187); test: BTK kinase inhibitory activity, ADP-Glo kinase assay kit (Promega V9071); conditions: ATP 10 uM, 8 ng BTK per reaction, 1 hour at 30° C., chemiluminescence
Sequence (Q06187 whole entry): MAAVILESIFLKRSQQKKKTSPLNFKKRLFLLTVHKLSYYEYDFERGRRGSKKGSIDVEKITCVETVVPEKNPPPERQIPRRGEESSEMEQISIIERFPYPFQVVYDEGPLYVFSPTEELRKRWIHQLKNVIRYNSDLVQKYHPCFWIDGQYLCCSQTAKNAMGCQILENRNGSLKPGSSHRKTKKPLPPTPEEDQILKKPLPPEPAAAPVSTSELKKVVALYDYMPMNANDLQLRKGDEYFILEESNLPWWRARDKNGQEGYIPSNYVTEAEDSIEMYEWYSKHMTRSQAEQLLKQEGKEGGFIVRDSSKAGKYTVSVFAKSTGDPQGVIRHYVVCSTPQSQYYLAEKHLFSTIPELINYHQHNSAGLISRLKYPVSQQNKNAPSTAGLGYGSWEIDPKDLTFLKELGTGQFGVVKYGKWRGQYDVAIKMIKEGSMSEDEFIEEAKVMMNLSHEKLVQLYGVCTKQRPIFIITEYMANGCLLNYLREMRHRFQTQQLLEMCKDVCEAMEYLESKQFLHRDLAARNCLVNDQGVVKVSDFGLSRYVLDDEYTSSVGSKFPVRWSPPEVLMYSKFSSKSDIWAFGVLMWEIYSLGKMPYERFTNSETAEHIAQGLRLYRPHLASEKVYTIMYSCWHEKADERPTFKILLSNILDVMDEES
MEASURED PARAMETER: log10 IC50 (log10 of the value in nM)
log10 IC50, nM

What value of measured log10 IC50 is listed for C=CC(=O)Nc1cccc(Oc2nc(Nc3ccsc3)nn3cccc23)c1 [Example 19] ?
1.80

Consider the compound O=C(CCl)Nc1ccc(F)c(Oc2nc(Nc3cnn(C4CCOCC4)c3)nn3cccc23)c1 [Example 42] and give its measured log10 IC50.
0.11

Value lookup for log10 IC50; key = C=CC(=O)Nc1ccc(F)c(Oc2nc(Nc3ccc(N(C)C)cc3)nn3cccc23)c1 [Example 12]
0.88

What does the data say about its log10 IC50? Entry: C=CC(=O)Nc1ccc(F)c(Oc2nc(Nc3cnn(C(F)F)c3)nn3cccc23)c1 [Example 33]
1.18

So what's the measured log10 IC50 for this one? C=CC(=O)Nc1cc(Oc2nc(Nc3cnn(CC(F)F)c3)nn3cccc23)ccc1C [Example 48]
1.87

Please look up its log10 IC50: CCC#CC(=O)Nc1ccc(F)c(Oc2nc(Nc3cnn(CC(F)F)c3)nn3cccc23)c1 [Example 49]
1.48

Give its log10 IC50 value. Item: C=CC(=O)Nc1cccc(Oc2nc(Nc3ccc(C(=O)N4CCOCC4)cc3)nn3cccc23)c1 [Example 18]
1.58

log10 IC50 lookup needed for C=CC(=O)Nc1ccc(F)c(Oc2nc(Nc3cnn(CC)c3)nn3cccc23)c1 [Example 8] , thanks.
0.89

The reported numbers originate from patent US11084823B2.
